target.desc: human PDE10A (Homo sapiens (Human), UniProt Q9Y233)
Sequence (Q9Y233 other isoform, or with tags, fused parts or gaps): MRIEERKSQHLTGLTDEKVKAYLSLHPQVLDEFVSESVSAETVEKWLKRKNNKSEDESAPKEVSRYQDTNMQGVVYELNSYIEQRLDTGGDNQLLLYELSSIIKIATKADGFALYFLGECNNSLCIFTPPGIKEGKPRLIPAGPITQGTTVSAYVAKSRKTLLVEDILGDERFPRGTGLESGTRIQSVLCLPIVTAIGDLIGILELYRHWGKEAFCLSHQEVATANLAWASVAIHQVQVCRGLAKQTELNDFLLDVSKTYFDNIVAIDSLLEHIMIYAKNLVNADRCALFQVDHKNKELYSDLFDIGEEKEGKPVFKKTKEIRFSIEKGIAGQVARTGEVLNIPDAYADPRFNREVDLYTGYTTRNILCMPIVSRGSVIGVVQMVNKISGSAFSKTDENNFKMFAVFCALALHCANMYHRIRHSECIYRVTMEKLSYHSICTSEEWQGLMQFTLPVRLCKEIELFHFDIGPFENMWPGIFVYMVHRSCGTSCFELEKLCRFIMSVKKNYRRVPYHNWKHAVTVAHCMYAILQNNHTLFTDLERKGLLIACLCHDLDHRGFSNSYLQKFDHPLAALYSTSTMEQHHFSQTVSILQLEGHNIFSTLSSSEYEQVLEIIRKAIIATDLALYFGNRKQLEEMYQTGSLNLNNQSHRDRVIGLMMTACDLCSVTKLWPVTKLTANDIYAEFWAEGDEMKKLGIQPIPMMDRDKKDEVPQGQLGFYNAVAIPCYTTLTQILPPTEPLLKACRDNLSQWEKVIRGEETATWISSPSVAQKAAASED
assay.comment: human PDE10A full length Scintillation Proximity Assay (SPA)
Assay type: biochemical
test.conditions: 50 nM cGMP and 50 nM [3H]-cGMP, 20 minutes at room temperature; read-out: PDE10A inhibition IC50
recorded.metric: IC50 (nM)

a: CCCN(CCC)C(=O)c1c(NC(=O)c2nc(C3CC3)cnc2Nc2cncnc2)cnn1C
b: CC(C)(O)CNC(=O)c1c(NC(=O)c2nc(C3CC3)cnc2Nc2cncnc2)cnn1CCC(F)(F)F
c: CN(CCCO)C(=O)c1nn(C)cc1NC(=O)c1nc(C2CC2)ccc1Nc1cncnc1
query: Please sort the compounds listed above from highest to lowest IC50. // ordering of labels required in reply
result: a, b, c
(a: 42.5 nM, b: 12.9 nM, c: 7.2 nM)

---

target.desc: human PDE10A (Homo sapiens (Human), UniProt Q9Y233)
assay.comment: human PDE10A full length Scintillation Proximity Assay (SPA)
Format: biochemical
test.conditions: 50 nM cGMP and 50 nM [3H]-cGMP, 20 minutes at room temperature; read-out: PDE10A inhibition IC50
recorded.metric: IC50 (nM)

// worked examples, IC50 included
>  <compound>
CNC(=O)c1ncccc1NC(=O)c1nc(C2CC2)cnc1Nc1cncnc1

>  <IC50, nM>
1.3

$$$$
>  <compound>
CNC(=O)c1c(NC(=O)c2nc(COC)ccc2Nc2cncnc2)cnn1CCOC

>  <IC50, nM>
28.3

$$$$
>  <compound>
CC(C)c1ncc(Nc2cncnc2)c(C(=O)Nc2cccnc2C(=O)NCC(C)(C)O)n1

>  <IC50, nM>
2.9

$$$$

I: CN(C(=O)c1c(NC(=O)c2nc(C3CC3)cnc2Nc2cncnc2)cnn1C)C1COC1
II: CN1CCC(NC(=O)c2c(NC(=O)c3nc(C4CC4)cnc3Nc3cncnc3)cnn2C)CC1
query: Choose between I and II : whose measured IC50 value is numerically larger? Write down the label attached to your selection.
result: I
(I: 191 nM, II: 69.3 nM)

A: COCCn1cc(NC(=O)c2nc(C3CC3)ccc2Nc2cncnc2)c(C(=O)N(C)C)n1
B: CN(CCCO)C(=O)c1ccncc1NC(=O)c1nc(C2CC2)ccc1Nc1cncnc1
query: Lower value of IC50 belongs to which: A or B ? Respond with the label that goes with your answer.
result: B

A: O=C(Nc1cnccc1C(=O)N1CCCC1CO)c1nc(C2CC2)ccc1Nc1cncnc1 (stereo not drawn)
B: CNC(=O)c1c(NC(=O)c2nc(C3CC3)cnc2Nc2cncnc2)cnn1C
query: Between A and B , which one shows the smaller IC50 number? # answer = label of selected item
result: B
(B: 4.5 nM, A: 105 nM)

---

pIC50: −log10 of the molar value.
Please consider the recorded pIC50 for human PDE10A (Homo sapiens (Human), UniProt Q9Y233) in what follows.
recorded.metric: pIC50

As a guide, the following entries are already answered.
>  <molecule>
CNC(=O)c1nn(CCC(F)(F)F)cc1NC(=O)c1nc(C2CC2)ccc1Nc1cncnc1 [Example 9]

>  <pIC50>
6.83

$$$$
>  <molecule>
O=C(Nc1cccc(F)c1C(=O)N1CCC1)c1nc(C2CC2)cnc1Nc1cncnc1 [Example 309]

>  <pIC50>
8.96

$$$$
>  <molecule>
CCN(C)c1cnc(Nc2cncnc2)c(C(=O)Nc2cnn(C)c2C(=O)NC)n1 [Example 311]

>  <pIC50>
7.69

$$$$

A: CNC(=O)c1nc(COC)ccc1NC(=O)c1nc(C2CC2)cnc1Nc1cncnc1 [Example 209]
B: CN(CCO)C(=O)c1c(NC(=O)c2nc(C3CC3)cnc2Nc2cncnc2)cnn1C [Example 226]
query: Which item exceeds the other in pIC50, A or B ? # answer = label of selected item
result: A
(A: 8.43, B: 7.27)

1: CN(C)C(=O)c1cc(F)c(F)cc1NC(=O)c1nc(C2CC2)cnc1Nc1cncnc1 [Example 284]
2: CC(NC(=O)c1c(NC(=O)c2nc(C3CC3)cnc2Nc2cncnc2)cnn1C)C(F)(F)F (stereo not shown) [Example 164]
3: COC1CCN(C(=O)c2ccncc2NC(=O)c2nc(C3CC3)ccc2Nc2cncnc2)C1 (stereo not shown) [Example 62]
query: List these items ordered by pIC50, big to small. # format: label list in the order the request specifies
result: 2, 1, 3

P: CNC(=O)c1cc(C(F)(F)F)ccc1NC(=O)c1nc(C2CC2)cnc1Nc1cncnc1 [Example 296]
Q: O=C(Nc1cncnc1C(=O)N1CCCCC1)c1nc(C2CC2)cnc1Nc1cncnc1 [Example 212]
R: CN(C)C(=O)c1ccc(F)cc1NC(=O)c1nc(C2CC2)cnc1Nc1cncnc1 [Example 294]
query: Order each entry by recorded pIC50, climbing from the minimum. List the labels in the requested order.
result: Q, R, P
(Q: 7.09, R: 7.71, P: 8.41)

1: Cn1ncc(NC(=O)c2nc(C3CC3)cnc2Nc2cncnc2)c1C(=O)NC1CCN(C(=O)OC(C)(C)C)C1 (stereo not shown) [Example 236]
2: O=C(Nc1cc(F)cc(F)c1C(=O)N1CCC1)c1nc(C2CC2)cnc1Nc1cncnc1 [Example 323]
3: CNC(=O)c1c(NC(=O)c2nc(C3CCC3)ncc2Nc2cncnc2)cnn1C [Example 193]
query: Sort entries by pIC50 from minimum to maximum value. Lab note: final answer is the ordered label list.
result: 2, 3, 1
(2: 7.44, 3: 7.93, 1: 8.17)
